- assayProcedure: BSK_LPS_SRB: Viability Assessment in the BioMAP Diversity Plus: LPS Assay (AID 2283079);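 further: total protein by sulforhodamine B absorbance as a cytotoxicity measure; measured one day after compound addition; fitted in both directions against DMSO so loss or gain of signal counts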
- measurementContext: primary human HUVEC with PBMC
Calls of active or inactive are those of the source. How the source made its calls: active means hit-call score of the fitted dose curve at least 0.9, where 1 is the maximum; inactive means score below 0.9.
Pick one and only one: label 1 for active, label 0 for inactive

Assay outcome for Nc1cc([N+](=O)[O-])cc(Cl)c1O : what was it?
label 0

Assay outcome for O=C(c1ccccc1)c1ccc(O)cc1O : what was it?
label 0

Assay outcome for O=C(O)C(F)(F)C(F)(F)C(F)(F)OC(F)(F)F : what was it?
label 0

Assay outcome for O=C(O)C(F)(F)OC(F)(F)C(F)(F)OC(F)(F)C(F)(F)OC(F)(F)F : what was it?
label 0

Assay outcome for O=S(=O)(O)CCC(F)(F)C(F)(F)C(F)(F)C(F)(F)F : what was it?
label 0

Assay outcome for NC(=O)C(F)(F)C(F)(F)C(F)(F)C(F)(F)C(F)(F)C(F)(F)C(F)(F)F : what was it?
label 0

Assay outcome for FC(F)(F)C(F)(F)C(F)(F)C(F)(F)C(F)(F)C(F)(F)CC[Si](Cl)(Cl)Cl : what was it?
label 0

Assay outcome for Brc1nc2ccccc2s1 : what was it?
label 0

Assay outcome for O=C(O)CCC(F)(F)C(F)(F)C(F)(F)F : what was it?
label 0

Assay outcome for OCC(F)(F)C(F)(F)C(F)(F)CO : what was it?
label 0

Assay outcome for CCOC(C=C(C)CCC=C(C)C)OCC : what was it?
label 1

Assay outcome for CCN(CC)c1ccc(N=Nc2ccccc2)cc1 : what was it?
label 1

Assay outcome for NCC(F)(F)C(F)(F)C(F)(F)C(F)(F)C(F)(F)C(F)(F)C(F)(F)C(F)(F)F : what was it?
label 0

Assay outcome for OC(O)C(F)(F)C(F)(F)F : what was it?
label 0

Assay outcome for NC(=O)C(F)(F)C(F)(F)C(F)(F)C(F)F : what was it?
label 0

Assay outcome for Cc1ccc(S(=O)(=O)C(I)I)cc1 : what was it?
label 1

Assay outcome for O=C1C=CC(=O)N1c1ccc(Cc2ccc(N3C(=O)C=CC3=O)cc2)cc1 : what was it?
label 1

Assay outcome for OCC(F)(F)C(F)(F)C(F)(F)C(F)(F)C(F)(F)C(F)(F)C(F)(F)C(F)(F)CO : what was it?
label 0

Assay outcome for CN(C(=O)C(F)(F)C(F)(F)C(F)(F)F)[Si](C)(C)C : what was it?
label 0

Assay outcome for COC(F)(C(F)F)C(F)(F)F (configuration not stated) : what was it?
label 0

Assay outcome for O=C(Cl)C(F)(F)C(F)(F)C(F)(F)C(F)(F)C(F)(F)C(F)(F)C(F)(F)F : what was it?
label 0

Assay outcome for FC(F)(F)C(F)(F)C(F)(F)CC1CO1 (configuration not stated) : what was it?
label 0

Assay outcome for OCC(O)CC(F)(F)C(F)(F)C(F)(F)C(F)(F)F (configuration not stated) : what was it?
label 0

Assay outcome for NC(=O)C(F)(F)C(F)(F)C(F)(F)C(F)(F)C(N)=O : what was it?
label 0

Assay outcome for Cc1cc(O)c(C(C)(C)C)cc1C(C)(C)C : what was it?
label 1

Assay outcome for O=C(O)CCC(F)(F)C(F)(F)C(F)(F)C(F)(F)C(F)(F)C(F)(F)C(F)(F)F : what was it?
label 0

Assay outcome for O=C(O)C(F)(F)C(F)(F)C(F)(F)C(F)(F)C(F)(F)C(F)(F)C(F)F : what was it?
label 0
